Tested On: SMARCA2 (Homo sapiens, UniProt P51531)
Sequence (P51531 1378-1506 limits assumed): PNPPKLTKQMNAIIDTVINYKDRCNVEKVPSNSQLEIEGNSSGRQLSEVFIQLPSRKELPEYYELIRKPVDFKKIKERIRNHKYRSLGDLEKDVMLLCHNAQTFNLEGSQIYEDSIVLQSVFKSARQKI
Test Description: SMARCA2 BromoScan bromodomain binding assay (phage-displayed bromodomain, qPCR readout)
Setup Conditions: read-out: BromoScan Panel - SMARCA2: External Kd
Description: Bromodomain assays. T7 phage strains displaying bromodomains were grown in parallel in 24-well blocks in an E. coli host derived from the BL21 strain. […] Kds were determined using an 11-point 3-fold compound dilution series with one DMSO control point. […] The bromodomain concentration in the eluates was measured by qPCR. […] Binding constants (Kds) were calculated with a standard dose-response curve using the Hill equation. […]
Let's look at some compounds and their measured Kd.
Measure Name: Kd

* Nc1nnc(-c2ccn[nH]2)cc1C1CCNCC1 | > 1000 nM
* Nc1ncc(-c2ncccn2)cc1N1CCNCC1 | > 1000 nM
* O=c1c2c(O)cccc2ccn1Cc1cn[nH]c1 | > 1000 nM
* Oc1ccccc1-c1n[nH]c2ccncc12 [I-30, 2-(1H-Pyrazolo[4,3-c]pyridin-3-yl)phenol] | > 1000 nM
* CC(C)(C)OC(=O)N1CCCC1Cn1ccc2cccc(O)c2c1=O (stereo not drawn) | > 1000 nM
* O=c1c2c(O)cccc2ccn1CC1CCCN1 (stereo not drawn) | > 1000 nM
* O=C(Nc1ccc2cn[nH]c2c1)c1ccccc1O [I-21, 2-Hydroxy-N-(1H-indazol-6-yl)benzamide] | > 1000 nM
* COC(=O)C1=CC(=O)N2CCCN=C2S1 | > 1000 nM
* Nc1ncc(-c2ncccn2)cc1C1CCNCC1 | > 1000 nM
* Nc1nnc(-c2cccc(Cl)c2O)cc1N1CCNCC1 | < 100 nM
* Oc1ccccc1-c1cc2c(C3CCNCC3)c[nH]c2nn1 | < 100 nM
* Cc1ccc(O)c(-c2cc(N3CCNCC3)c(N)nn2)c1 | > 1000 nM
* Nc1nnc(-c2ccc(Cl)cc2O)cc1N1CCNCC1 | > 1000 nM
* CC(c1ccccc1)n1cc(-c2cc(-c3cccn(C)c3=O)cnc2N)cn1 (stereo not drawn) | > 1000 nM
* c1ccc2c(c1)nnc1[nH]c(C3CCNCC3)cc12 | 501 to 1000 nM
* Cn1cccc(-c2cnc(N)c(-c3cn[nH]c3)c2)c1=O | > 1000 nM
* Oc1ccccc1-c1n[nH]c2ccccc12 | > 1000 nM
* COc1ccc(C(NC(=O)c2cc(-c3ccccc3O)n[nH]2)C2CC2)cc1 (stereo not drawn) | > 1000 nM
* O=c1c2c(O)cccc2ccn1CC1CCNC1 (stereo not drawn) | > 1000 nM
* CC(C)(C)OC(=O)N1CCC(Cn2ccc3cccc(O)c3c2=O)C1 (stereo not drawn) | > 1000 nM
* O=c1ncn(-c2ccccc2)c2cccc(Cl)c12 | > 1000 nM
* Oc1ccccc1-c1cc(-c2ccc(CN3CCNCC3)cc2)[nH]n1 | > 1000 nM
* CCCCOc1ccc(N2CCN(c3cc(-c4ccccc4O)nnc3N)CC2)cc1 | > 1000 nM
* Oc1ccccc1-c1cc2cc[nH]c2nn1 | < 100 nM
* Nc1nnc(-c2cc(Cl)ccc2O)cc1N1CCNCC1 | 100 to 500 nM
* O=C(Nc1ccc2c(C3CCNCC3)n[nH]c2c1)c1ccccc1O | > 1000 nM
* O=c1c2c(O)cccc2ccn1Cc1cnn(Cc2ccccc2)c1 | > 1000 nM
* O=c1c2c(O)cccc2ccn1CC1CCN(c2ccccn2)C1 (stereo not drawn) | > 1000 nM
* Nc1ncc(-c2cccc(Cl)c2)cc1N1CCNCC1 | > 1000 nM
* Nc1ncc2c(Cl)cccc2c1C#CC1CCNCC1 | > 1000 nM
* O=C(Nc1cc(C2CCNCC2)cc2[nH]ncc12)c1ccccc1O | > 1000 nM
* O=C(NCC1CCN(c2ccccn2)CC1)c1ccccc1O | > 1000 nM
* Nc1nnc(-c2cnccc2O)cc1N1CCNCC1 | > 1000 nM
